Substrate: PET
Experiment summary: Proxy for plastic degradation [HPLC-UV]
Measurement setup: pH 9; 30 °C; 72 h
Test readout: Proxy for plastic degradation (µM)
Please reply with the bare figure in µM and do not write the unit itself.

INPUT: I have this protein here, unnamed (protein) MNFPRASRLMQAAVLGGLMAVSAAATAQTNPYARGPNPTAASLEASAGPFTVRSFTVSRPSGYGAGTVYYPTNAGGTVGAIAIVPGYTARQSSIKWWGPRLASHGFVVITIDTNSTLDQPSSRSSQQMAALRQVASLNGTSSSPIYGKVDTARMGVMGWSMGGGGSLISAANNPSLKAAAPQAPWLSSTNFSSVTVPTLIFACENDSIAPVNSSALPIYDSMSRNAKQFLEINGGSHSCANSGNSNQALIGKKGVAWMKRFMDNDTRYSTFACENPNSTRVSDFRTANCS , and I need its recorded Proxy for plastic degradation.
OUTPUT: 3.1
